This section presents binders with their documented Blocking fold after conjugation (+20K) values.
Measured On: T1, CD3 (antigen of the anti-CD3 antibody, coated in the ELISA of Examples 1-3) (Homo sapiens (Human), UniProt P07766 23-126)
T1 construct: also called antibody antigen
Method Summary: binding activity of the conjugated mutant compared with the wild-type antibody (ELISA as in Example 1)
Field: value (include unit after the number)

INSERT INTO results (binder, measured_result) VALUES
  ('anti-CD3 antibody mutant VH-D68C conjugated with Molecule I (+20K) (antibody, V domains shown, Cys 68 conjugated with Molecule I (+20K), also called VH-68 D68 (+20K)) VH: EVQLVESGGGLVQPGGSLRLSCAASGFTFSTYAMNWVRQAPGKGLEWVGRIRSKYNNYATYYADSVKCRFTISRDDSKNSLYLQMNSLKTEDTAVYYCARHGNFGNSYVSWFAYWGQGTLVTVSS VL: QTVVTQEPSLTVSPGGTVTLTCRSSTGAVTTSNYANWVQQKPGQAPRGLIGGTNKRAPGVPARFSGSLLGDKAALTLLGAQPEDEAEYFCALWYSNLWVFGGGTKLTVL', '4 fold');

Query block: Give its Blocking fold after conjugation (+20K) value. Item: anti-CD3 antibody mutant VL-W93C conjugated with Molecule I (+20K) (antibody, V domains shown, Cys 93 conjugated with Molecule I (+20K), also called VL-93 W93 (+20K)) VH: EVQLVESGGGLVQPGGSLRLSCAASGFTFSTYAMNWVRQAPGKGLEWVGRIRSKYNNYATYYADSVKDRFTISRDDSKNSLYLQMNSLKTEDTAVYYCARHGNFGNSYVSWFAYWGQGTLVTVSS VL: QTVVTQEPSLTVSPGGTVTLTCRSSTGAVTTSNYANWVQQKPGQAPRGLIGGTNKRAPGVPARFSGSLLGDKAALTLLGAQPEDEAEYFCALCYSNLWVFGGGTKLTVL
Result block: 5 fold
